System: rat fundic strip
Assay protocol: Electrically stimulated isolated rat stomach fundus
Type: cell-based
Test conditions: bath concentrations 0.1 μM thru 100 μM, 37° C., 95% confidence limits in parentheses
Measurement name: pEC50
pEC50 here is simply -log10 of the concentration when that concentration is written in mol/L.

The compound identified as Nc1n[s+]([O-])nc1NCCSCc1ccc(CN2CCCCC2)o1 (stereo not shown) [Example 1] registered its pEC50 at 5.09

All values here come from patent US4829073A.
